Recorded pKi, one value per entry.
Target: Aβ1-40 fibrils (Homo sapiens)
Construct: beta-amyloid plaque peptides (Aβ1-40 and Aβ1-42)
Sequence (P05067 672-711 limits assumed): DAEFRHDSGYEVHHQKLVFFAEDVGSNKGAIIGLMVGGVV
Experiment: Binding affinity to beta-amyloid fibrils, competition with [125I]TZDM
Conditions: [125I]TZDM radioligand
pKi: −log10 of the molar value.
measured.quantity: pKi

| smiles.record | tested.on | value |
| --- | --- | --- |
| CN(C)c1ccc(-c2nc3ccc(F)cc3s2)cc1 | Aβ1-40 fibrils (Homo sapiens) | 8.10 |
| CNc1ccc(-c2nc3ccc(F)cc3s2)cc1 | Aβ1-40 fibrils (Homo sapiens) | 7.88 |

----------
Assay: Measurement of partition coefficient (1-octanol / PBS buffer, gamma counter)
Type: physicochemical
Settings: 1-octanol / 1 M PBS buffer, room temperature; read-out: Log P value
The following molecules are listed with their measured logP values.

| smiles.record | logP |
| --- | --- |
| CNc1ccc(-c2nc3ccc([18F])cc3s2)cc1 | 3.11 |
| CN(C)c1ccc(-c2nc3ccc([18F])cc3s2)cc1 | 4.33 |
